Data origin, for the record: paper PMC11161644

Assay Overview: UPLC/ESI-tqMS time profile of 2,6-DCQ and its degradation products in simulated seawater (pH 8.2, darkness); OH-DCQ formation
Condition Parameters: 2,6-DCQ degradation, pH 8.2, darkness; 20 h
Listing of recorded Peak area by entry.
Respond numerically, and do not add a unit to the figure.

Below: 2 molecules and their reported Peak area.
Ask | Could you share which Peak area value was measured for O=C1C=C(Cl)C(=O)C(Cl)=C1 ?
Reply | 0

Ask | Could you share which Peak area value was measured for O=C1C=C(Cl)C(=O)C=C1O [SIR 157, 3-hydroxyl-6-monochloro-1,4-benzoquinone] ?
Reply | 5024

Others:
Ask | Could you share which Peak area value was measured for O=C1C=C(Cl)C(=O)C(Cl)=C1O [OH-DCQ, 3-hydroxyl-2,6-dichloro-1,4-benzoquinone] ?
Reply | 23553

Ask | Could you share which Peak area value was measured for O=C1C=C(Cl)C(=O)C(OC2=C(Cl)C(=O)C(Cl)=CC2=O)=C1 ?
Reply | 896
